STUDY TARGET: T1, human CD112R on Jurkat CD112R effector cells (human, UniProt Q6DKI7 1-326)
T1 sequence (looked up): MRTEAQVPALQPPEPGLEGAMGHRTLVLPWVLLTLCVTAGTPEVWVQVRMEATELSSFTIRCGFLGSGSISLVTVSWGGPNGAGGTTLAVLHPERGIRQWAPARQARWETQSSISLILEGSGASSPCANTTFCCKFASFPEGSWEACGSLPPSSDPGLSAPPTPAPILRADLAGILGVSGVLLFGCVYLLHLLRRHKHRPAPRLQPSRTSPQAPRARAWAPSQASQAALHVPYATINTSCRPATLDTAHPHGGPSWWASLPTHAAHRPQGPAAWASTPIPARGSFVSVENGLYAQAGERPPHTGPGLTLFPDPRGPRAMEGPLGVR
ASSAY NAME: cell-based or functional assay
Kindly state EC50, CD112R/CD112 reporter for each of the entries shown.
Numbers only, in µg/mL.

Below are worked cases with known answers.
Hu27 (antibody, IgG4, V domains shown, humanized IgG4) VH: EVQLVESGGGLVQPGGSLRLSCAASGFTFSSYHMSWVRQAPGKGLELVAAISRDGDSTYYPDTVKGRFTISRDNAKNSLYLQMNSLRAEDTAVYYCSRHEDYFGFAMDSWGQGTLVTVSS VL: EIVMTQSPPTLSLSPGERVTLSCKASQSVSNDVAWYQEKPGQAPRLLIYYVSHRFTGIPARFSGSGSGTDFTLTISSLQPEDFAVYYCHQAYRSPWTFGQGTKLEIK ... 0.0328
Hu9 (antibody, IgG4, V domains shown, humanized IgG4; also called Hu-09) VH: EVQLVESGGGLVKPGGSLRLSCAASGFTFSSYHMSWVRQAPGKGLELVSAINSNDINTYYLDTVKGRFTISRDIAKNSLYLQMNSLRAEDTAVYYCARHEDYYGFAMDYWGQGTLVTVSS VL: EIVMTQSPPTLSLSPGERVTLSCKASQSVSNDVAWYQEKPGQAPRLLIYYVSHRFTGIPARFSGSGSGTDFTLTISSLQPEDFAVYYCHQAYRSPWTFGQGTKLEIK ... 0.0385
Hu36 (antibody, IgG4, V domains shown, humanized IgG4) VH: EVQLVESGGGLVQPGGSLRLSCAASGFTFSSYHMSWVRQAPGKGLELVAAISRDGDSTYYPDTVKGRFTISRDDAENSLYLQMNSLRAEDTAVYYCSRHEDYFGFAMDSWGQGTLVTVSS VL: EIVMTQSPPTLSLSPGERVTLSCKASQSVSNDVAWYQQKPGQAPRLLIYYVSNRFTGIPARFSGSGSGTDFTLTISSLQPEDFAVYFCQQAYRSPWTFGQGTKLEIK ... 0.0356
Hu29 (antibody, IgG4, V domains shown, humanized IgG4) VH: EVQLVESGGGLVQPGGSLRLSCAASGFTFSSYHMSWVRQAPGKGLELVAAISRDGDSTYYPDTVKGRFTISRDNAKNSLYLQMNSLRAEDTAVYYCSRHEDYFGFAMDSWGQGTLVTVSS VL: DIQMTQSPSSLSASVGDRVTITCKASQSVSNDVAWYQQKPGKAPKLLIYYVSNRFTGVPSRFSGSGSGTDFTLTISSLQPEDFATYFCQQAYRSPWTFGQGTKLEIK ... 0.0272
Hu1 (antibody, IgG4, V domains shown, humanized IgG4; also called Hu-01) VH: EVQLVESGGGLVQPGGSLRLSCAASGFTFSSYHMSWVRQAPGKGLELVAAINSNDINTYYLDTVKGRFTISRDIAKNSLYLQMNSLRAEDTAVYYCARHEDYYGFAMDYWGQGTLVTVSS VL: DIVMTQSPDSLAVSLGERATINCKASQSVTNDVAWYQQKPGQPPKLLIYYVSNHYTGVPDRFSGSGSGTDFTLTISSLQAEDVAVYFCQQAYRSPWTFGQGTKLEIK ... 0.0688

List reported EC50, CD112R/CD112 reporter for each of these binders:
1. Hu21 (antibody, IgG4, V domains shown, humanized IgG4) VH: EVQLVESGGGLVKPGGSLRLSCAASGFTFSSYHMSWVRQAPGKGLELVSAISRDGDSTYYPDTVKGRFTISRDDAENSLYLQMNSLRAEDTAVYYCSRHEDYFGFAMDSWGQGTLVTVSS VL: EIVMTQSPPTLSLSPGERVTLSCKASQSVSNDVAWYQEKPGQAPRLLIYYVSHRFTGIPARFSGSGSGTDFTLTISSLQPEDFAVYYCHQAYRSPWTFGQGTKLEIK
2. Hu4 (antibody, IgG4, V domains shown, humanized IgG4; also called Hu-04) VH: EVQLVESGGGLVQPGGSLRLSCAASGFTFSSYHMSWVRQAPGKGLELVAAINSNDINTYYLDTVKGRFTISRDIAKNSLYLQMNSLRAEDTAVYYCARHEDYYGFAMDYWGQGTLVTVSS VL: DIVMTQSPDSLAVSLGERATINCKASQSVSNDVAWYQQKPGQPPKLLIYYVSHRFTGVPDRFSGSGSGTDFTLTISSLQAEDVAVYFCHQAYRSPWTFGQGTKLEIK
3. Hu17 (antibody, IgG4, V domains shown, humanized IgG4) VH: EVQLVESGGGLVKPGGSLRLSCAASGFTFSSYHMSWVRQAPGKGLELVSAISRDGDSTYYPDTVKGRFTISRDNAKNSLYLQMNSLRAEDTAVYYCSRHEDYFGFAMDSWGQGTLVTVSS VL: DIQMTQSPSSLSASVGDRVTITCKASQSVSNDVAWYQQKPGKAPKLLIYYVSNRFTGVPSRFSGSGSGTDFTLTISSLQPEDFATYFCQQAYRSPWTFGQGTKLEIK
4. Hu47 (antibody, IgG4, V domains shown) VH: EVQLVESGGGLVKPGGSLRLSCAASGFTFSSYHMSWVRQAPGKGLELVSAINSNVISTYYLDTVKGRFTISRDNAKNSLYLQMNSLRAEDTAVYYCARHEDYYGFAMDYWGQGTLVTVSS VL: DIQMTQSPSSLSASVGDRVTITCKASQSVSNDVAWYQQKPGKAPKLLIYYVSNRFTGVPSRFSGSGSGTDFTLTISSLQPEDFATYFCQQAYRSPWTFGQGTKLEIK
5. Hu51 (antibody, IgG4, V domains shown, humanized IgG4) VH: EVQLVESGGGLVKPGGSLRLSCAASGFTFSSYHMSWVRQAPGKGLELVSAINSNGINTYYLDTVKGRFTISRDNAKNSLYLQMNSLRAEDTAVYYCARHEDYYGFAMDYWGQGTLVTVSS VL: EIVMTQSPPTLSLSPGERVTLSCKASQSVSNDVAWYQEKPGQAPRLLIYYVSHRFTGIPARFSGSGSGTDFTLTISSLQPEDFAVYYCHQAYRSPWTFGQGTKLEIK

Completion:
0.0285
0.0385
0.0228
0.039
0.0225
